These measurements were taken from patent US11702404B2.

Experiment: Microsomal stability, human liver microsomes (predicted hepatic clearance)
Conditions: predicted from in vitro microsomal stability data
parameter: Predicted Hepatic Clearance (Pred. Cl.) (mL/min/kg)
Report the figure in mL/min/kg without appending any unit label.

Req: Specify reported Predicted Hepatic Clearance (Pred. Cl.) for the compound shown: O=C(O)c1cc(F)c2nc(Cc3ccc(-c4cccc(OCc5ccc(C(F)F)cc5F)n4)cc3F)n(C[C@@H]3CCO3)c2c1
Resp: 2.33

Req: Specify measured Predicted Hepatic Clearance (Pred. Cl.) for COCCn1c(Cc2ccc(-c3cccc(OCc4ccccc4S(C)(=O)=O)n3)cc2F)nc2ccc(C(=O)O)cc21 .
Resp: 14.5

Req: Input COc1cc(C#N)ccc1COc1cccc(-c2cc(F)c(Cc3nc4ccc(C(N)=O)cc4n3CC3(CC#N)CC3)cc2F)n1 , output reported Predicted Hepatic Clearance (Pred. Cl.).
Resp: 19.2

Req: Output Predicted Hepatic Clearance (Pred. Cl.) of N#Cc1ccc(COc2cccc(-c3cc(F)c(Cc4nc5ccc(C(=O)O)cc5n4C4COCC4(F)F)cc3F)n2)c(F)c1 (stereo not shown)
Resp: 3.83
